target: Ataxin-2 (Homo sapiens); assay: qHTS for Inhibitors of ATXN expression.; format: functional
The campaign covered roughly 400,000 compounds. About 2,100 (0.53%) were called active. Roughly 14% stayed inconclusive and do not appear here. No rule for the calls is given here. The entries come from a sample that favours actives as a whole.
Assign a class; possible classes are active, inactive

These solved cases illustrate the format of a correct answer.
- molecule: "Cc1oc(CC(C)C)cc1C(=O)NCCCC(=O)O"
  group: "inactive"
- molecule: "CCCSc1nnc(NC(=O)c2sc3nc(-c4cccs4)ccc3c2N)s1"
  group: "inactive"
- molecule: "Cc1cc2nc3c(O)nc(S)nc3nc2cc1NC(=O)C(F)(F)F"
  group: "inactive"

For CC1CN(C(=O)COC(=O)c2ccc(NC(=O)CC#N)cc2)CC(C)O1 (centres undefined) , which call appears in the assay record?
inactive

Look up the recorded call for COc1cccc(C(=O)NNS(=O)(=O)c2ccccc2)c1 in this test.
inactive

Any idea what this test logged for Cc1nc(NN)c2c3c(sc2n1)COC(C)(C)C3 ?
inactive

###

molecular target: Ataxin-2 (Homo sapiens) (UniProt Q99700); test: qHTS for Inhibitors of ATXN expression.; format: functional
Sequence (Q99700 whole entry): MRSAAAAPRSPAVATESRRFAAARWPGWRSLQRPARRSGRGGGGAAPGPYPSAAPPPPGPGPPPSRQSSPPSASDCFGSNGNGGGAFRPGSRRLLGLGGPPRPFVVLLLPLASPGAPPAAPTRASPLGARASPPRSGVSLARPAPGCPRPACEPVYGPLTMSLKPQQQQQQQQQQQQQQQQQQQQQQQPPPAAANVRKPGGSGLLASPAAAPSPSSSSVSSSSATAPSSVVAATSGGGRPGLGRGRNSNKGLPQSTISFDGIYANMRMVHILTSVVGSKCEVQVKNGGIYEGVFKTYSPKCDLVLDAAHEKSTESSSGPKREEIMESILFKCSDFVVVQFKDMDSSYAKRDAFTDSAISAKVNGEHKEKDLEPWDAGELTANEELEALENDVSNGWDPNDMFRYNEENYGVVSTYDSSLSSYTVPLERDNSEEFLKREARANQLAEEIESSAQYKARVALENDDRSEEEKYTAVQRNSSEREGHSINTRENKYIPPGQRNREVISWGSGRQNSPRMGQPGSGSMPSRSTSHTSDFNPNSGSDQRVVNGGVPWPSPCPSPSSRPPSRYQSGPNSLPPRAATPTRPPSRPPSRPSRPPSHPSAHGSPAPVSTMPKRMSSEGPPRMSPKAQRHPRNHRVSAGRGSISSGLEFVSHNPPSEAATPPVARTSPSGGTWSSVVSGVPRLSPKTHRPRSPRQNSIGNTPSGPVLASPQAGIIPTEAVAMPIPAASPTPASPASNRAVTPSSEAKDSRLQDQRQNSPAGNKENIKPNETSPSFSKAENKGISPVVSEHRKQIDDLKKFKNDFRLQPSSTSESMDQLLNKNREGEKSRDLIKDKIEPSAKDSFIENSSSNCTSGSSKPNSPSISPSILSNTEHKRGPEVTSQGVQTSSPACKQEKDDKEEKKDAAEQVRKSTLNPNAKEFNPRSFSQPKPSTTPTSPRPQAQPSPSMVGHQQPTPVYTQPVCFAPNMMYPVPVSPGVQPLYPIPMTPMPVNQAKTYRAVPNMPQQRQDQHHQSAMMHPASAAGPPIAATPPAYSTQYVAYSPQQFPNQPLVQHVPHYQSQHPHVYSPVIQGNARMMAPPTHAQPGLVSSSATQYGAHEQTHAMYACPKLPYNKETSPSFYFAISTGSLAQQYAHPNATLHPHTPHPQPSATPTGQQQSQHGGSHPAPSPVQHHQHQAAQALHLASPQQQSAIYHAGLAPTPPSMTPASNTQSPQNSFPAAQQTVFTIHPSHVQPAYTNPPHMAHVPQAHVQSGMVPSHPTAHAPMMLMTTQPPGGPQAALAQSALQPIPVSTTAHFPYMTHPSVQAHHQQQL
The whole screen tested about 400,000 compounds, of which about 2,100 (0.53%) were called active. Inconclusive results (about 14%) are left out. No rule for the calls is given here. This excerpt belongs to a sample that is enriched for actives.
Select the matching outcome among Yes = active, No = inactive

Reference set (8 entries):
- molecule: "CCCNC(=O)c1ccc(SCC(=O)N(CC)CC)c([N+](=O)[O-])c1"
  group: "No"
- molecule: "CC(=O)NCCNC(=O)c1ccc(Sc2ccccc2)c([N+](=O)[O-])c1"
  group: "No"
- molecule: "CN1C(=O)c2cccc3c(Br)ccc(c23)C1=O"
  group: "No"
- molecule: "COc1ccc(CNCC(=O)Nc2sccc2C#N)cc1"
  group: "No"
- molecule: "CCC(=O)Nc1c(C#N)c2nc3ccccc3nc2n1-c1ccc(C)cc1"
  group: "No"
- molecule: "COc1ccc(C2=CC(c3ccc(Cl)cc3)n3cnnc3N2)cc1OC (stereo not given)"
  group: "No"
- molecule: "CCCCCCNC(=O)O[C@H]1Cn2c(=O)n(CCCCCC)c(=O)n2[C@@H]2CN(S(=O)(=O)c3ccc(C)cc3)C[C@]12O"
  group: "Yes"
- molecule: "CCC(CO)Oc1cc(NCc2ccccc2C(F)(F)F)c2ncn(C(C)C)c2c1 (stereo not given)"
  group: "Yes"

Test call for this molecule, please: Cc1ccc2nc(Cn3cc(C(F)(F)F)cc(Cl)c3=O)cc(=O)n2c1
No

Can you look up the reported call for COc1ccc(-c2c(C#N)c(N)nc3sc(C(=O)c4ccccc4)c(N)c23)cc1 for me?
No

###

biological target: Ataxin-2 (Homo sapiens) (UniProt Q99700); assay: qHTS for Inhibitors of ATXN expression.; assay type: functional
Out of some 400,000 compounds screened, about 2,100 (0.53%) were called active. Not shown: some 14% with an inconclusive outcome. The rule behind the calls is not given here. The entries come from a sample that favours actives as a whole.
# output must be one of 1.0 = active, 0.0 = inactive

Some solved entries appear below for comparison.
- compound: "COc1cc(Br)c(/C=C/c2ccc3cccc(O)c3n2)cc1OC"
  group: 1.0
- compound: "CCc1ccc(S(=O)(=O)N2CCN(Cc3ccco3)CC2)cc1"
  group: 0.0
- compound: "COc1cccc(/C=C/c2ccc3cccc(O)c3n2)c1OC"
  group: 0.0

Hey, what did the test say about Cc1ccc(Cl)cc1-n1c(=O)c2sc3ccccc3c2n(CC(=O)NC2CCCC2)c1=O ?
1.0

For this compound, state the assay outcome: COc1ccc(-c2nc3ccccc3c(=O)n2CCOc2c(C)cccc2C)cc1
0.0

Call for entry CCOC(=O)CSc1nnc2n(-c3ccccc3)c(=O)c3c4c(sc3n12)CC(C(C)(C)C)CC4 (stereo not given) :
1.0

Tell me the assay call for N#Cc1ccc(C(=O)OCC(=O)Nc2cccnc2Cl)cc1 please.
0.0

Write down the call the test reported for this compound. Item: CN1CCN(c2ccc(-c3ccc4ccccc4n3)cc2)CC1
0.0
